// reported pIC50 per item
target: PDGFRB (Homo sapiens); construct: Kinases are expressed as either kinase domains or full length constructs; made in house; assay: Kinase inhibition assay (33P transfer), PDGFRB; format: biochemical; conditions: read-out: PDGFRB-1
Sequence (P09619 33-1106, species assumed): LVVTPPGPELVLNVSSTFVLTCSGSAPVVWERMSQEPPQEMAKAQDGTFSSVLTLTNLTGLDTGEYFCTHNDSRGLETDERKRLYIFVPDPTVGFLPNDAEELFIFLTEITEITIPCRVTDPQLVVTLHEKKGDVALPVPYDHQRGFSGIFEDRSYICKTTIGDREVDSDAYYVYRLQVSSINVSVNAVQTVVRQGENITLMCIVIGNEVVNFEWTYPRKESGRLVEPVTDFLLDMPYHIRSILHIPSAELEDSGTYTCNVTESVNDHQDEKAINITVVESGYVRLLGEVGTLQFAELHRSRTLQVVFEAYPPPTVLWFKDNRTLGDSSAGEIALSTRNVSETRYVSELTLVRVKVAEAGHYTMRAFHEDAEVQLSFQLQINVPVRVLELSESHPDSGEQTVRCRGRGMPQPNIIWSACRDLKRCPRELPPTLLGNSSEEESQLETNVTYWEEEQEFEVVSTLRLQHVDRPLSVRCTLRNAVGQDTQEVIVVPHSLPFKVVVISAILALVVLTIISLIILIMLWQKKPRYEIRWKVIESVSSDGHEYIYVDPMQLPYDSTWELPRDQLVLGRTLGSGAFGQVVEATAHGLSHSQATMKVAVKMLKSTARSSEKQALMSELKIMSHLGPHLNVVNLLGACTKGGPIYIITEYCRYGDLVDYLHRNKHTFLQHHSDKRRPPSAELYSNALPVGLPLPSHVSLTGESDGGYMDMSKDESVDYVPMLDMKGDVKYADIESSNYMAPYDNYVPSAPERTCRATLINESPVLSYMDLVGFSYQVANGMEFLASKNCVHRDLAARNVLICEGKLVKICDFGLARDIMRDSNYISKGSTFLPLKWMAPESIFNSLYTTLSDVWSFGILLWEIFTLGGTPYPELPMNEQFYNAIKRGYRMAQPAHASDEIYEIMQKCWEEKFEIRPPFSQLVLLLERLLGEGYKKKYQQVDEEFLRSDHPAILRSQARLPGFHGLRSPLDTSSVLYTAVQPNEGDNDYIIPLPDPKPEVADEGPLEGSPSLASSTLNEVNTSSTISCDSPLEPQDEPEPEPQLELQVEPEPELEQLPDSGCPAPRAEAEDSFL
pIC50: −log10 of the molar value.

{"columns": ["Molecule", "pIC50"],
 "data": [
  ["CCN(CC)CCOc1cc(Nc2ncnc(-n3c(N)nc4ccccc43)n2)ccc1OC [Compound 649]", "5.27 to 6.05"],
  ["COc1cc(Nc2ncnc(NC(=O)NCCc3ccccc3)n2)cc(OC)c1OC [Compound 661]", "< 4.97"],
  ["COc1cc(Nc2ncnc(-n3c(C)nc4ccccc43)n2)cc(OC)c1OC [Compound 691]", "> 5.99"],
  ["COc1cc(Nc2ncnc(-n3c(NCc4ccc(N(C)C)cc4)nc4ccccc43)n2)cc(OC)c1OC [Compound 593]", "5.34 to 6.12"],
  ["COc1cc(Nc2ncnc(N3CCCc4ccccc43)n2)cc(OC)c1OC [Compound 609]", "> 5.99"],
  ["COc1cc(Nc2ncnc(-n3c(NCc4ccccn4)nc4ccccc43)n2)cc(OC)c1OCCN1CCOCC1 [Compound 519]", "> 6.16"],
  ["COc1ccc(N(C)c2ncnc(Nc3cc(OC)c(OC)c(OC)c3)n2)cc1 [Compound 106]", "> 6.00"],
  ["COc1ccc(Nc2ncnc(Nc3ccc(Oc4ccccc4)cc3)n2)cc1OC [Compound 929]", "< 4.97"]
]}

Origin of measurements: patent US7074789B2
